molecular target: EGFR (d746-750) (Homo sapiens (Human), UniProt P00533, DEL746-750); test: Biochemical EGFR inhibition assay, EGFR (d746-750); conditions: Caliper mobility shift; 1.0 mM ATP or ATP Km; read-out: Enz EGFR_Exon19-del746-750 IC50
Sequence (P00533 other isoform, or with tags, fused parts or gaps del 1-694/del 746-750 limits assumed): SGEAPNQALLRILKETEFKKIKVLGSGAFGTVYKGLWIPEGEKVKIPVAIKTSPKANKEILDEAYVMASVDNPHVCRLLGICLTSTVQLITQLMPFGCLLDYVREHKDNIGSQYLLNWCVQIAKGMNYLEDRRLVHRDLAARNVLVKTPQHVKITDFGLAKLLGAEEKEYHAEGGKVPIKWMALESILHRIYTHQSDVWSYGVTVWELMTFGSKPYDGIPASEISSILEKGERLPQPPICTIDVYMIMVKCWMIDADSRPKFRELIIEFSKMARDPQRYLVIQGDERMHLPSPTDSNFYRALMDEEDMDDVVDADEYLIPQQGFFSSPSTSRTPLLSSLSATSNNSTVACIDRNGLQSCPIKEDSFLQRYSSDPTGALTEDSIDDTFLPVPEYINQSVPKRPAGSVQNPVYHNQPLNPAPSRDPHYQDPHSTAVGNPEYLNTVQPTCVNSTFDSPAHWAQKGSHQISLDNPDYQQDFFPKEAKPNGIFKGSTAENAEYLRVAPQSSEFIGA
pIC50: −log10 of the molar value.
PARAMETER: pIC50

{"columns": ["MOLECULE", "pIC50"],
 "data": [
  ["CCOc1cc2ncnc(-c3cn(CC)nc3-c3ccccc3)c2cc1[C@H](C)O (single isomer, unassigned) [Example 107]", 9.22]
]}

[A] COc1cc2ncnc(-c3cn(C)nc3-c3ccccc3)c2cc1-c1cnc(C(C)(C)O)s1 [Example 149]
[B] COc1cc2ncnc(-c3cn(C)nc3-c3c(F)cccc3F)c2cc1NC(=O)[C@]12C[C@H]1CN(C)C2 [Example 293]
Problem: When A and B are compared, which has the higher number for pIC50? Provide the label of your selected option as the answer.
Result: A
(A: 8.68, B: 8.47)

[a] COc1cc2ncnc(-c3cn(C)nc3-c3ccccc3)c2nc1NC(=O)[C@H](C)N(C)C [Example 390]
[b] COc1cc2ncnc(-c3cn(C)nc3-c3ccccc3)c2nc1NC(=O)[C@@H]1C[C@H]2C[C@H]2N1C [Example 418]
Problem: Of a and b , which one carries the higher reported pIC50? Record your answer as the label of the chosen record.
Result: b
(b: 9.22, a: 8.41)

----------
target: pEGFR (Tyr1068) in PC-9 cells (Ex19Del) (Homo sapiens (Human), UniProt P00533, DEL746-750); assay: PC-9 pEGFR AlphaLISA assay; settings: 4 hours incubation, p-EGFR (Tyr1068) AlphaLISA, read-out: Ext pEGFR_PC-9 Ex19Del IC50
Sequence (P00533 other isoform, or with tags, fused parts or gaps del 746-750): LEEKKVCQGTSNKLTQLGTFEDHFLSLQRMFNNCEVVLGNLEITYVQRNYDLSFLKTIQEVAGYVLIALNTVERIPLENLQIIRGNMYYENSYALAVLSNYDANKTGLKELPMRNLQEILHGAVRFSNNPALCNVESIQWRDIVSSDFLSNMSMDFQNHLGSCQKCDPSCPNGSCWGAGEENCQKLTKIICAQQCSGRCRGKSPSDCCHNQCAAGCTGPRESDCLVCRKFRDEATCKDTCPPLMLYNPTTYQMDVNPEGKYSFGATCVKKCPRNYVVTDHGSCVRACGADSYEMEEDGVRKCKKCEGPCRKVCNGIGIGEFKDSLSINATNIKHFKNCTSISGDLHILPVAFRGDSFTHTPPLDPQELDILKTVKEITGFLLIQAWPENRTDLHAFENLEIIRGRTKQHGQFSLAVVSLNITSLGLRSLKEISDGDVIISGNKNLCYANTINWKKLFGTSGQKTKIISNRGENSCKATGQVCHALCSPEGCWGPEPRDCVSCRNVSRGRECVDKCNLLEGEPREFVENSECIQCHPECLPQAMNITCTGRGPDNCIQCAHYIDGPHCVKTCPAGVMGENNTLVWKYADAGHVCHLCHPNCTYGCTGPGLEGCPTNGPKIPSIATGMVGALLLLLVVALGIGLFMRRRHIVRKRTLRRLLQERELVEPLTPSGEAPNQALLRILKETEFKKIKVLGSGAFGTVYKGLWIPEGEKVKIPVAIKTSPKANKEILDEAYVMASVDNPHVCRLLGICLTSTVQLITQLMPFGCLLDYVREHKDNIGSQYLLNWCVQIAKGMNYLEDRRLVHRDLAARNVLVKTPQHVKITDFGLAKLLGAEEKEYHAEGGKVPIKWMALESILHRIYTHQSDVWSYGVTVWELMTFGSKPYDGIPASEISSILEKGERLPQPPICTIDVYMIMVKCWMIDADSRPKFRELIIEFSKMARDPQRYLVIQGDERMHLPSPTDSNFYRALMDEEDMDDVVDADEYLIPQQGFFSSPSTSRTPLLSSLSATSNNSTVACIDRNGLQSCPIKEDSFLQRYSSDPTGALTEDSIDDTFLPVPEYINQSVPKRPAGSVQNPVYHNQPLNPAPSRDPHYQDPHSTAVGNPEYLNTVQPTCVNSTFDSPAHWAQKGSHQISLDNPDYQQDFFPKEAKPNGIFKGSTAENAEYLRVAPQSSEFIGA
PARAMETER: IC50 (nM)

These solved cases illustrate the format of a correct answer.
{"columns": ["COMPOUND", "IC50 [nM]"],
 "data": [
  ["COc1cc2ncnc(-c3cn(C)nc3-c3ccccc3)c2cc1OC(=O)N1CCO[C@@H](C)[C@@H]1C", 5.1],
  ["CN1CC[C@@H](Oc2cc3c(-c4cn(C)nc4-c4ccccc4)ncnc3cc2OC(F)F)[C@H](F)C1", 71.6]
]}

[1] CCC(=O)Nc1cc2c(-c3cn(CC(F)F)nc3-c3ccccc3)ncnc2cc1OC
[2] COc1cc2ncnc(-c3cn(C)nc3-c3ccc(F)cc3)c2nc1NC(=O)[C@@]12COC[C@@H]1C2 (single isomer, unassigned)
Problem: Which entry shows the lesser value of IC50 here, 1 or 2 ? Write down the label attached to your selection.
Result: 1
(1: 0.9 nM, 2: 1.6 nM)

----------
Target: EGFR (d746-750) (Homo sapiens (Human), UniProt P00533, DEL746-750)
Experiment: Biochemical EGFR inhibition assay, EGFR (d746-750)
Conditions: Caliper mobility shift; 1.0 mM ATP or ATP Km; read-out: Enz EGFR_Exon19-del746-750 IC50
Description: Reactions proceeded until between 10% to 20% total peptides were phosphorylated at room temperature (25° C.) and were terminated with 35 mM 2,2′,2″,2″-(ethane-1,2-diyldinitrilo)tetraacetic acid (EDTA). Product was detected using the Caliper mobility shift detection method where the phosphorylated peptide (product) and substrate were electrophoretically separated and measured. Percent activity was plotted against log concentration of compound and points to generate an apparent IC50.
pIC50: −log10 of the molar value.
PARAMETER: pIC50

Some solved entries appear below for comparison.
{"columns": ["COMPOUND", "TARGET UNDER TEST", "PARAMETER", "ASSAY RESULT"],
 "data": [
  ["COc1cc2ncnc(-c3cn(C)nc3-c3ccccc3)c2cc1OC(=O)N1CCOCC12CC2", "EGFR (d746-750) (Homo sapiens (Human), UniProt P00533, DEL746-750)", "pIC50", 8.60],
  ["CCOc1cc2ncnc(-c3cn(CC(F)F)nc3-c3ccccc3)c2cc1OC", "EGFR (d746-750) (Homo sapiens (Human), UniProt P00533, DEL746-750)", "pIC50", 9.10]
]}

[1] COc1cc2ncnc(-c3cn(C)nc3-c3ccccc3)c2cc1[C@H]1CN(C)CCO1 (single isomer, unassigned)
[2] Cn1cc(-c2ccc3c(-c4c[nH]nc4-c4ccccc4F)ncnc3c2)cn1
Problem: Endpoint returns whichever of 1 and 2 has the numerically higher pIC50. // caller expects the label of the chosen entry
Result: 2
(2: 9.40, 1: 8.96)

----------
molecular target: pEGFR (Tyr1068) in PC-9 cells (Ex19Del) (Homo sapiens (Human), UniProt P00533, DEL746-750); test: PC-9 pEGFR AlphaLISA assay; details: 4 hours incubation, p-EGFR (Tyr1068) AlphaLISA, read-out: Ext pEGFR_PC-9 Ex19Del IC50
pIC50: −log10 of the molar value.
PARAMETER: pIC50

[1] [2H]C([2H])([2H])n1ncc(-c2ncnc3cc(OC)c(NC(=O)C4(C(F)(F)F)CC4)nc23)c1-c1ccccc1 [Example 492]
[2] COc1cc2ncnc(-c3cn(C)nc3-c3ccccc3)c2nc1O[C@@H](C)c1nnc(C)o1 [Example 37]
[3] COc1cc2ncnc(-c3cn(C)nc3-c3ccccc3)c2cc1NC(=O)c1cccnc1 [Example 325]
[4] CCn1cc(-c2ncnc3cc(OC)c([C@@H](C)O)cc23)c(-c2ccccc2)n1 (single isomer, unassigned) [Example 106]
Problem: Order by pIC50, ascending. Quick reminder: the answer is the labels in the order asked.
Result: 1, 4, 2, 3

----------
target: EGFR L858R (Homo sapiens (Human), UniProt P00533, L858R); assay: Biochemical EGFR inhibition assay, EGFR L858R; conditions: Caliper mobility shift; 1.0 mM ATP or ATP Km; read-out: Enz EGFR_L858R IC50
Sequence (P00533 25-1210 L858R): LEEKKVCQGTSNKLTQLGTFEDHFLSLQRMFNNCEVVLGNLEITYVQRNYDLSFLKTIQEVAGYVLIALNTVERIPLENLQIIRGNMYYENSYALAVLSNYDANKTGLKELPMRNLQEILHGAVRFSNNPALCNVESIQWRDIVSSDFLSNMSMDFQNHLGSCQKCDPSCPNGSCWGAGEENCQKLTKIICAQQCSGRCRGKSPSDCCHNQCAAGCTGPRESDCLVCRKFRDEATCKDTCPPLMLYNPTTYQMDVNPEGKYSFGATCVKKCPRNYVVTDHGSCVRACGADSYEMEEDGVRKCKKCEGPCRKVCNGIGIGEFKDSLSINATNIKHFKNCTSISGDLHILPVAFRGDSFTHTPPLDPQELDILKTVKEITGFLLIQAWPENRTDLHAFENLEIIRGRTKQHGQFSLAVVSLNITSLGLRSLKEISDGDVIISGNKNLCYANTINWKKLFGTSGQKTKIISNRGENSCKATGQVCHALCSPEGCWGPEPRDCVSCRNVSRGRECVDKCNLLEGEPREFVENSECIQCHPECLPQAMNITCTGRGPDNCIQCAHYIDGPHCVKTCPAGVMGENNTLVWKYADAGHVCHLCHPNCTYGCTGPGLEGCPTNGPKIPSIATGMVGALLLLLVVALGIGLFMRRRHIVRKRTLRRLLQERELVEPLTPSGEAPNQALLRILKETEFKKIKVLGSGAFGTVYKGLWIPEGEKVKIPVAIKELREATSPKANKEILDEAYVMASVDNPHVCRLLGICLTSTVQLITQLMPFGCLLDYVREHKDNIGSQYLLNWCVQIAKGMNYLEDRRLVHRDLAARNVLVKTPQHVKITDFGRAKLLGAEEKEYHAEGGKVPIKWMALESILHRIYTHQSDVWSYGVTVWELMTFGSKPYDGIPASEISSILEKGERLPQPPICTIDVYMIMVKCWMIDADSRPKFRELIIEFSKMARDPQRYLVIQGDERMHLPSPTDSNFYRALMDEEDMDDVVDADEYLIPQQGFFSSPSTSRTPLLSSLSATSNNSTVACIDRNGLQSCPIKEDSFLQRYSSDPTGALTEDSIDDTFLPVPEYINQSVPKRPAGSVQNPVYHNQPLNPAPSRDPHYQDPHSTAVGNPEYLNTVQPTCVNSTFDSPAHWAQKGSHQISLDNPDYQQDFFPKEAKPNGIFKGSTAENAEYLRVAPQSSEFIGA
pIC50: −log10 of the molar value.
PARAMETER: pIC50

{"columns": ["SMILES STRUCTURE", "TARGET UNDER TEST", "pIC50"],
 "data": [
  ["COc1cc2ncnc(-c3cn(C)nc3-c3ccccc3)c2cc1OC(=O)N1CCN(C)C(C)(C)C1", "EGFR L858R (Homo sapiens (Human), UniProt P00533, L858R)", 8.14]
]}

[I] COc1cc2ncnc(-c3cn(CC(F)F)nc3-c3ccccc3)c2cc1OC
[II] CC(C)Oc1cc2ncnc(-c3cn(C)nc3-c3ccccc3)c2cc1OC(=O)N1CCOC[C@H]1C
Problem: Identify the entry with the larger pIC50. Options: I and II // caller expects the label of the chosen entry
Result: I

----------
molecular target: EGFR L858R (Homo sapiens (Human), UniProt P00533, L858R); test: Biochemical EGFR inhibition assay, EGFR L858R; settings: Caliper mobility shift; 1.0 mM ATP or ATP Km; read-out: Enz EGFR_L858R IC50
pIC50: −log10 of the molar value. Where a name gives a salt, the structure may show the parent alone.
PARAMETER: pIC50

{"columns": ["COMPOUND", "pIC50"],
 "data": [
  ["COc1cc2ncnc(-c3cn(C)nc3-c3ccccc3)c2cc1NC(=O)N1CCO[C@@H](C)[C@@H]1C", 8.37]
]}

[1] COc1cc2ncnc(-c3cn(C)nc3-c3ccccc3)c2cc1O[C@H]1CCOC1
[2] COc1cc2ncnc(-c3cn(C)nc3-c3ccccc3)c2nc1OC(C)c1cccnc1F (stereo not shown)
[3] COc1cc2ncnc(-c3cn(C)nc3-c3ccccc3)c2cc1NC(=O)C12CC(N(C)C)(C1)C2 [Example 341, trifluoroacetate]
Problem: Highest pIC50 first, then in falling order down to the smallest. Present the labels in the sequence the task asks for.
Result: 2, 1, 3
(2: 8.85, 1: 8.40, 3: 8.19)

----------
Target: EGFR (d746-750) (Homo sapiens (Human), UniProt P00533, DEL746-750)
Assay: Biochemical EGFR inhibition assay, EGFR (d746-750)
Settings: Caliper mobility shift; 1.0 mM ATP or ATP Km; read-out: Enz EGFR_Exon19-del746-750 IC50
Experimental: Reactions proceeded until between 10% to 20% total peptides were phosphorylated at room temperature (25° C.) and were terminated with 35 mM 2,2′,2″,2″-(ethane-1,2-diyldinitrilo)tetraacetic acid (EDTA). Product was detected using the Caliper mobility shift detection method where the phosphorylated peptide (product) and substrate were electrophoretically separated and measured. Percent activity was plotted against log concentration of compound and points to generate an apparent IC50.
pIC50: −log10 of the molar value.
PARAMETER: pIC50

{"columns": ["MOLECULE", "pIC50"],
 "data": [
  ["COc1cc2ncnc(-c3cn(C)nc3-c3ccccc3)c2cc1OC(=O)N1CCN(C)CC1(C)C", 8.62],
  ["COc1cc2ncnc(-c3cn(C)nc3-c3ccccc3F)c2nc1NC(=O)C1CC1", 8.96],
  ["COc1cc2ncnc(-c3cn(C)nc3-c3ccc(F)cc3)c2cc1NC(=O)c1cn(C)nc1C", 8.48]
]}

[I] COc1cc2ncnc(-c3cn(C)nc3-c3ccccc3)c2cc1NC(=O)C1C2COCC21 (centres unmarked)
[II] COc1cc2ncnc(-c3cn(C)nc3-c3ccccc3)c2cc1NC(=O)[C@@H]1C[C@@H]1C
Problem: Form field 'greater pIC50' accepts I or II ; which applies? Response format: the label of the selected entry.
Result: II
